Provide the recorded pEC50 for the entries that follow.
# assay_system: TrkC (Homo sapiens)
# Sequence (Q16288 32-839): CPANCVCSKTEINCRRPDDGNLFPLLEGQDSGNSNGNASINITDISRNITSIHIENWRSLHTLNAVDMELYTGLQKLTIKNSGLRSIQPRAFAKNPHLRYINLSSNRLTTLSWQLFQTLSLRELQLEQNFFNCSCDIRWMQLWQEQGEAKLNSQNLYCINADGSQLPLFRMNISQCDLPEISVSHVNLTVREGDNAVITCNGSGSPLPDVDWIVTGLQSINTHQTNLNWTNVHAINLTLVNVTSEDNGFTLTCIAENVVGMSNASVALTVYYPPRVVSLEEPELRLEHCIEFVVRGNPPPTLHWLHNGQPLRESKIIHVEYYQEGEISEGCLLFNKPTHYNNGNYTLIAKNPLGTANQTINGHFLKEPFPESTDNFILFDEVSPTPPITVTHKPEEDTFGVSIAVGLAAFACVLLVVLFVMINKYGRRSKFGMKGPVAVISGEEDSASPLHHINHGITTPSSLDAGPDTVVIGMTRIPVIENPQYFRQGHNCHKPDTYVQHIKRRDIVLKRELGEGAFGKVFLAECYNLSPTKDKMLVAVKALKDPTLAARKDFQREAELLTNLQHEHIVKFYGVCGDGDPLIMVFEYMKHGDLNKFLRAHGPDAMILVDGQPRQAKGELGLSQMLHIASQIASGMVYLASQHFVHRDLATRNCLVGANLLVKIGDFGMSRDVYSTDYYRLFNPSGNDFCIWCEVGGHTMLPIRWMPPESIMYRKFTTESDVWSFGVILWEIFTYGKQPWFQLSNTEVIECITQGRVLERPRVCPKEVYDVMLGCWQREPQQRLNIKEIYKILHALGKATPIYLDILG
# assay_summary: Cell-based Enzyme Fragment Complementation (EFC) assay, U2OS cells over-expressing TrkC
# stated_conditions: compound pre-mixed with ligand, final ligand concentration 10 ng/mL, 3 hours at room temperature, read-out: TrkC potency expressed as EC50
Note on units: pEC50 is unitless, being -log10 of a concentration expressed in mol/L.

Notebook: O=c1[nH]c(=O)n(-c2ccc(Oc3ccccc3)c(Cn3cccn3)c2)c(=O)n1-c1ccccc1 , pEC50 read as 6.92

Notebook: O=c1[nH]c(=O)n(-c2ccc(Oc3ccccc3)c(Cn3ccnc3)c2)c(=O)n1-c1ccccc1 , pEC50 read as 6.70
